Cited source for all entries: patent US20260116991A1

target_system: T1, human GPC3-His protein (human, UniProt P51654 25-559)
T1 construct: Bought protein; also called human GPC3 protein; not shown: His tag
assay_name: ELISA, coated human GPC3, antibody 0.01 nM;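 note: Plate-bound antigen coated at 1 µg/mL, antibody incubated 2 h at 37 °C, binding detected by HRP-conjugated secondary antibody with TMB substrate, read as absorbance at 450 nm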

>  <binder>
F1.120.16 human-murine chimeric antibody (antibody, human IgG1, kappa, V domains shown) VH: EFQLQQSGPELVKPGASVKISCKASGYSFTDYNMNWVKQSNGKSLEWIGLIHPKFSVTSYNRKFKGKATLTVDQSSSTAYMQLNSLTSEDSAVYYCARWAGDYFDYWGQGTTLTVSS VL: DIVLTQSPATLSVTPGDSVSLSCRASQSISNNLHWYQQKSHESPRLLIKYASQSISGIPSRFSGSGSGTDFTLTINSVETEDFGMYFCQQSNSWPQTFGGGTKLEIKR

>  <OD450 nm [OD450]>
0.22

$$$$
>  <binder>
F2.152.3 human-murine chimeric antibody (antibody, human IgG1, kappa, V domains shown) VH: EVQLQQSGPELVKPGASVKMSCKASGYTFTDYYMTWVKQSHGKSLEWIGRVNPRNGDTTYNQKFEGRATLTLDKSLSTAFMQLNSLTSEDSAVYYCINSKGHFDYWGQGTTLTVSS VL: DVLMTQTPLSLPVSLGDQASISCRSSQSIVHSNGNTYLEWFLQKPGQSPKSLIYKVSNRFSGVPDRFSGSGSGTDFTLKISRVEAEDLGVYYCFQGSHVPPTFGAGTKLELKR

>  <OD450 nm [OD450]>
0.32

$$$$
>  <binder>
F1.41.17 human-murine chimeric antibody (antibody, human IgG1, kappa, V domains shown) VH: EVQLVESGGDSVKPGGSLKLSCAASGFTFSSYGMSWVRQTPDKRLEWVATINSGGSYTYYQDSVKGRFTISRDNAKNTLYLQMSSLKSEDTAIYYCVRHHYGSSYDYFDYWGQGTTLTVSS VL: DIVMTQAAPSVPVMPGESVSISCRSSKSLLHSNGNTHLYWFLQRPGQSPQLLIYRMSNLASGVPDRFSGSGSGTAFTLRISRVEAEDVGVYYCMQHLEYPLTFGAGTKLELKR

>  <OD450 nm [OD450]>
0.24

$$$$
>  <binder>
F3.81.19 human-murine chimeric antibody (antibody, human IgG1, kappa, V domains shown) VH: QVQLQQSGAELVRPGASVKLSCKASGYTFTDYEMHWVKQTPVHGLEWIGTIDPETGNTAYNQKFKGKATLTADKSSSTAYMELRSLTSEDSAVYYCTRPYSLTYWGQGTLVTVSA VL: DVLLTQTPLSLPVSLGDQASISCRSSQSFVHSNGDTYLQWYLQKPGQSPKLLIYKVSNRFSGVPDRFSGSGSGTDFTLKISRVEAEDLGVYYCFQGSHVPYTFGSGTKLEIKR

>  <OD450 nm [OD450]>
0.19

$$$$
>  <binder>
F1.42.8 human-murine chimeric antibody (antibody, human IgG1, kappa, V domains shown) VH: HVQLQQPGAELVKPGASVKLSCKASGYTFTSYWMHWVRQRPGQGLEWIEMIHPNSGSTNYNEKFKSKATLTVDKSSSTAYMQLSSLTSEDSAVYYCARGNYNSSLYAMDYWGQGTSVTVSS VL: DIQMTQTTSSLSASLGDRVTISCSASQGISNYLNWYQQKPDGTVKLLIYYASNLHSGVPSRFSGSGSGTAYSLTISNLEPEDIATYYCQQYSILPYTFGGGTKLEIKR

>  <OD450 nm [OD450]>
0.3

$$$$
>  <binder>
F1.3.9 human-murine chimeric antibody (antibody, human IgG1, kappa, V domains shown) VH: QVQLQQPGTELVKPGASVKLSCKASGYTFTSYWIHWVKQRPGQGLEWIGNINPPNAGTNYNEKFKSKATLTVDKSSSTAYMQLSSLTSEDSAVYYCARGRWLLHDYWGQGTTLTVSS VL: DIQMTQSPASLSISVGETVTITCRASENIYSNLAWYQQKQGKSPQLLVYGTKNLAEGVPSRFSGSGSGTQYSLKINSLQSEDFGNYYCQHFWGTPYTFGGGTKLEILR

>  <OD450 nm [OD450]>
0.21

$$$$
>  <binder>
F2.55.11 human-murine chimeric antibody (antibody, human IgG1, kappa, V domains shown) VH: EVKLVESGGGLVKPGGSLKLSCAASGLTFSTCTMSWVRQTPAKRLEWVATISSGGGNTYYPDSVKGRFTISRDNARNTLYLQMSSLRSEDTAMYYCVRLYYDGSPYAMDYWGQGTSVTVSS VL: DIQMTQTTSSLSASLGDRVTISCRASQDISNHLNWYQQKPDGTVKLLIYYTSRLHSGVPSRFSGSGSGTDYSLTISNLEQEDIATYFCQQDSKPPPTFGSGTKLEIKR

>  <OD450 nm [OD450]>
0.43

$$$$
>  <binder>
F1.21.8 human-murine chimeric antibody (antibody, human IgG1, kappa, V domains shown) VH: EVQLQQSGPELVKPGASVKISCKTSGFLFTGHYMHWVKSSHGNILDWIGYIYPYNAISFYNQKFKGKATLTVDKSSNTAYMELRSLTSEDSAVYYCARGDYGNYVTAYWGQGTLVTVSA VL: DVLMTQTPLSLPVSLGDQASISCRSSQSIVHSSGNTYLEWYLQKPGQSPKLLIYKVSNRFSGVPDRFSGSGSGTDFTLKISRVEAEDLGVYYCFQGSHLPWTFGGGTKLDIKR

>  <OD450 nm [OD450]>
0.25

$$$$
>  <binder>
F1.83.6 human-murine chimeric antibody (antibody, human IgG1, kappa, V domains shown) VH: QVQLQQSGPELVKPGASVKISCKASGYAFSSSWMNWVKQRPGKGLEWIGRIYPGDGDTNYNGRFKGKATLTVDKSSSTAYMQLSSLTSEDSAVYFCARGGVFTMALDHWGQGTTLTVSS VL: DIQMTQSPSSLSASLGGKVTITCKASQDINKYIAWYQHKPGKGPRLLIHYTSTLQPGIPSRFSGSGSGRDYSFSISNLEPEDIATYYCLQYDNLFTFGGGTKLEIKR

>  <OD450 nm [OD450]>
0.17

$$$$
>  <binder>
F2.39.2 human-murine chimeric antibody (antibody, human IgG1, kappa, V domains shown) VH: QVQLQQSGAELVRPGASVKVSCKASGYTFTDYEMHWMKQTPVHGLEWIGANEPETGRSAYDQKFKGKATLTADKSSSTAYMELRSLTSEDSAVYYCTRFYSFAYWGQGTLVTVSA VL: DVVMTQTPLSLPVSLGDQASISCRSSQGLVHNNGNTYLHWYLQKPGQSPKLLIYKVSNRFSGVPDRFSGSGSGTDFTLKISRVEAEDLGVYFCSQNTHVPPTFGGGTKLEIKR

>  <OD450 nm [OD450]>
0.34

$$$$
